Below, each entry is listed alongside its reported kon.
molecular target: Recombinant human his-tagged IGF 1R extracellular domain protein (human) (UniProt P08069); assay: SPR, captured antibody, dissociation at pH 6
MEASUREMENT LABEL: kon (M⁻¹ s⁻¹)

binder="VRDN-03047 (antibody, V domains shown) VH: QVELVESGGGVVQPGRSQRLSCAASGFTFSSYGMHWVRQAPGKGLEWVAIIWFDGSSTYYADSVRGRFTISRDNSKNTLYLQMNSLRAEDTAVYFCARELGRRYFDLWGRGTLVSVSS VL: EIVLTQSPATLSLSPGERATLSCRASQSVSSYHAWYQQKPGQAPRLLIYDASKRATGIPARFSGSGSGTDFTLTISSLEPEDFAVYYCQQRSKWPPWTFGQGTKVESK" experimental_result=78100
binder="VRDN-03039 (antibody, V domains shown) VH: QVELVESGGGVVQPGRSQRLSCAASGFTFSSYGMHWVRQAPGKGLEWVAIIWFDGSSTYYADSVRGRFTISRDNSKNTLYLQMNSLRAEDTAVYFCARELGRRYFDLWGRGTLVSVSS VL: EIVLTQSPATLSLSPGERATLSCRHSQSVSSYLAWYQQKPGQAPRLLIYDASKRATGIPARFSGSGSGTDFTLTISSLEPEDFAVYYCQQRSKWPPWTFGQGTKVESK" experimental_result=394000
binder="VRDN-03038 (antibody, V domains shown) VH: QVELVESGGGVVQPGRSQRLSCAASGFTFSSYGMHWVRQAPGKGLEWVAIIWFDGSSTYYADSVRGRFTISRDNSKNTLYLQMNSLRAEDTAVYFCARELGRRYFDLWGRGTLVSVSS VL: EIVLTQSPATLSLSPGERATLSCHASQSVSSYLAWYQQKPGQAPRLLIYDASKRATGIPARFSGSGSGTDFTLTISSLEPEDFAVYYCQQRSKWPPWTFGQGTKVESK" experimental_result=82000
binder="VRDN-03054 (antibody, V domains shown) VH: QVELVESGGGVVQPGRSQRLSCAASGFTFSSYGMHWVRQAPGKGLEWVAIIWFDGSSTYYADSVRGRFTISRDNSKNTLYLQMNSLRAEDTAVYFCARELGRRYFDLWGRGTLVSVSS VL: EIVLTQSPATLSLSPGERATLSCRASQSVSSYLAWYQQKPGQAPRLLIYDASKRHTGIPARFSGSGSGTDFTLTISSLEPEDFAVYYCQQRSKWPPWTFGQGTKVESK" experimental_result=94500
binder="VRDN-03042 (antibody, V domains shown) VH: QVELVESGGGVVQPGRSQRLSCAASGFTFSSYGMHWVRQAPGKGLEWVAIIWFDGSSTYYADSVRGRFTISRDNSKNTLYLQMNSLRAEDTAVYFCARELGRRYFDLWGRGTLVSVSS VL: EIVLTQSPATLSLSPGERATLSCRASQHVSSYLAWYQQKPGQAPRLLIYDASKRATGIPARFSGSGSGTDFTLTISSLEPEDFAVYYCQQRSKWPPWTFGQGTKVESK" experimental_result=78400
binder="VRDN-03110 (antibody, V domains shown) VH: QVQLVESGGGVVQPGRSLRLSCAASGFTFSDYTMHWVRQAPGKGLEWVAIIWFDGSSKYYADSVKGRFTISRDNSKNTLYLQMNSLRAEDTAVYYCARELGRRYFDIWGRGTLVTVSS VL: EIVMTQSPATLSVSPGERATLSCRASQGVSSYLAWYQQKPGQAPRLLIYGASTRATGIPARFSGSGSGTEFTLTISSLQSEDFAVYYCQQRSRWPPWTFGQGTKLEIK" experimental_result=223000
binder="VRDN-03098 (antibody, V domains shown) VH: QVQLVESGGGVVQPGRSLRLSCAASGFTFSSYSMHWVRQAPGKGLEWVAIIWFDGSSKYYADSVKGRFTISRDNSKNTLYLQMNSLRAEDTAVYYCARELGRRYFDIWGRGTLVTVSS VL: EIVLTQSPATLSLSPGERATLSCRASQGVSSYLAWYQQKPGQAPRLLIYGASTRATGIPARFSGSGSGTDFTLTISSLEPEDFAVYYCQQRSRWPPWTFGQGTKLEIK" experimental_result=247000
binder="VRDN-03055 (antibody, V domains shown) VH: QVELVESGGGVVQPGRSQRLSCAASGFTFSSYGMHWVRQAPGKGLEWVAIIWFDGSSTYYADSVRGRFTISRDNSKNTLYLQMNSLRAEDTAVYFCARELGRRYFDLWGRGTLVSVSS VL: EIVLTQSPATLSLSPGERATLSCRASQSVSSYLAWYQQKPGQAPRLLIYDASKRAHGIPARFSGSGSGTDFTLTISSLEPEDFAVYYCQQRSKWPPWTFGQGTKVESK" experimental_result=87000
binder="VRDN-03114 (antibody, V domains shown) VH: QVQLVESGGGVVQPGRSLRLSCAASGFTFSDHYMDWVRQAPGKGLEWVAIIWFDGSSKYYVDSVKGRFTISRDNSKNTLYLQMNSLRAEDTAVYYCARELGRRYFDIWGRGTLVTVSS VL: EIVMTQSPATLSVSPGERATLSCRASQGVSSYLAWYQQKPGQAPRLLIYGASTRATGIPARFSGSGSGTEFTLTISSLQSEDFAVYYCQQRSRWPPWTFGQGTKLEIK" experimental_result=122000
binder="VRDN-03099 (antibody, V domains shown) VH: QVQLVESGGGVVQPGRSLRLSCAASGFTFSSYSMHWVRQAPGKGLEWVAIIWFDGSSKYYVDSVKGRFTISRDNSKNTLYLQMNSLRAEDTAVYYCARELGRRYFDIWGRGTLVTVSS VL: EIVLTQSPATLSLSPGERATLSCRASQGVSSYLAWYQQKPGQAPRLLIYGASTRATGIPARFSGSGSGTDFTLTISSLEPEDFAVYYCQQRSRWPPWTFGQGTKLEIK" experimental_result=221000
